Biological target: porcine kidney cortex glutamyl aminopeptidase (porcine aminopeptidase A; pAPA) (Sus scrofa)
Sequence (Q95334 whole entry): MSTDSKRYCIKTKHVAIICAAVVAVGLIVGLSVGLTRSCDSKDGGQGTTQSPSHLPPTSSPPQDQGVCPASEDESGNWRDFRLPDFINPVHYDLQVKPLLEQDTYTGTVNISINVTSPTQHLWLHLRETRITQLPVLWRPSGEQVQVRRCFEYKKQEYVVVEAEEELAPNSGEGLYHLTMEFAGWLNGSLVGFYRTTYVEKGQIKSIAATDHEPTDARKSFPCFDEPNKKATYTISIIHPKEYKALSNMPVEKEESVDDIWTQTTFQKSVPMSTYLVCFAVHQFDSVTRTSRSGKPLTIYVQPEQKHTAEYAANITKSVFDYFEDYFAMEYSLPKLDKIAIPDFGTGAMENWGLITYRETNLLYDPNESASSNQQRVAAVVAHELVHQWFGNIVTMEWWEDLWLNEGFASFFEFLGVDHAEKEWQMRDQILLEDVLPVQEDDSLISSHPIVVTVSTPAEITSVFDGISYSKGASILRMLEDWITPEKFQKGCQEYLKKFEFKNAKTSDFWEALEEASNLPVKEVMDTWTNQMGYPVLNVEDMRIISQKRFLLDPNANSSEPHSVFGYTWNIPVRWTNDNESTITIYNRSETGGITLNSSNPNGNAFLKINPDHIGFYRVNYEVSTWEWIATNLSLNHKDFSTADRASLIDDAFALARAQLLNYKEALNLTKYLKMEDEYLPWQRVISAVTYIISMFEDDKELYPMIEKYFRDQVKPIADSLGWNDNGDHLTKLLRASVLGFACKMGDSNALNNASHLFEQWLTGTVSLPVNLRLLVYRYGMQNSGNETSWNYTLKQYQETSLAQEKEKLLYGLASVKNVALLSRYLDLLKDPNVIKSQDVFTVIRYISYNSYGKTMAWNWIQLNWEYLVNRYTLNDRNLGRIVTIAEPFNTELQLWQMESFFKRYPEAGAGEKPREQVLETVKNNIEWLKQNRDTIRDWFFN
Experiment: Porcine aminopeptidase A
Details: read-out: IC50 vs pAPA; dose-response, L-Glu-pNA
quantity: IC50 (µM)
Write the value in µM as a bare number.

Some molecules with known IC50 results, for comparison:
O=C(NNC(=NS(=O)(=O)c1ccc(-n2nc(C(F)(F)F)cc2-c2cccs2)cc1)N1CCCC1)c1ccc(Cl)cc1	4.74
N#Cc1cc(Cc2ccc3c(ccc4ccccc43)c2C#N)cc2c1ccc1ccccc12	1.82

We now examine a further molecule.
input: Bench note: what IC50 did `C(=C1c2ccccc2-c2c1ccc1ccccc21)c1cc2c3c(cccc3c1)-c1ccccc1-2` show?
output: 3.88

====

Molecular target: UniProt:P15144
Sequence (P15144 whole entry): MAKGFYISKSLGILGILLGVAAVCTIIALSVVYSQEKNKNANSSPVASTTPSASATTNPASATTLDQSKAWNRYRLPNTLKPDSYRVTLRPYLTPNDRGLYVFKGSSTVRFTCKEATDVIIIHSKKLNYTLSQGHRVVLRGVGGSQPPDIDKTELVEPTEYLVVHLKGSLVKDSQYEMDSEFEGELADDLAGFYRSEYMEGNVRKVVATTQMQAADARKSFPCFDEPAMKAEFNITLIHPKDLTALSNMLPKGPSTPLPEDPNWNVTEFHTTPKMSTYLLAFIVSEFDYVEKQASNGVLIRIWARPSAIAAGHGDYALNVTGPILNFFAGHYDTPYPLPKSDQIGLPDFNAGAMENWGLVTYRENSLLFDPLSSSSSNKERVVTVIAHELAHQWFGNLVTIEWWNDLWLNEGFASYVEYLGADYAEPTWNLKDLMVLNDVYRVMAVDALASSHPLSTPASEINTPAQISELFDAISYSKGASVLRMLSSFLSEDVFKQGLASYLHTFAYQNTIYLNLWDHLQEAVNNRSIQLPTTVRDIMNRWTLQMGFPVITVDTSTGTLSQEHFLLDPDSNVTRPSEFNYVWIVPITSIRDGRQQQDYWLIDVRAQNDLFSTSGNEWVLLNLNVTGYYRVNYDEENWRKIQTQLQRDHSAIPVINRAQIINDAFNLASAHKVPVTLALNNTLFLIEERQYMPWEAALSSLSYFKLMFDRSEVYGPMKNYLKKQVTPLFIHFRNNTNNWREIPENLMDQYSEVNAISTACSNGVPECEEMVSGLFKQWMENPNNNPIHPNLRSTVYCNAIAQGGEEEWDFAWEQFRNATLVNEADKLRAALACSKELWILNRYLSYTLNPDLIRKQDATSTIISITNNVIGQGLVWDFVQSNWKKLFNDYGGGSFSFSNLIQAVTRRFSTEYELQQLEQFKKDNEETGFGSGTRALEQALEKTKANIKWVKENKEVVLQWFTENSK
quantity: pIC50
Note on units: pIC50 is unitless, being -log10 of a concentration expressed in mol/L.

input: Item: `O=C(NNC(=NS(=O)(=O)c1ccc(-n2nc(C(F)(F)F)cc2-c2cccs2)cc1)N1CCCC1)c1ccc(Cl)cc1` Test system: UniProt:P15144 Read-out: pIC50 Value: ?
output: 5.57

====

Biological target: Porcine kidney APN (pAPN) (Sus scrofa, UniProt P15145)
Sequence (P15145 whole entry): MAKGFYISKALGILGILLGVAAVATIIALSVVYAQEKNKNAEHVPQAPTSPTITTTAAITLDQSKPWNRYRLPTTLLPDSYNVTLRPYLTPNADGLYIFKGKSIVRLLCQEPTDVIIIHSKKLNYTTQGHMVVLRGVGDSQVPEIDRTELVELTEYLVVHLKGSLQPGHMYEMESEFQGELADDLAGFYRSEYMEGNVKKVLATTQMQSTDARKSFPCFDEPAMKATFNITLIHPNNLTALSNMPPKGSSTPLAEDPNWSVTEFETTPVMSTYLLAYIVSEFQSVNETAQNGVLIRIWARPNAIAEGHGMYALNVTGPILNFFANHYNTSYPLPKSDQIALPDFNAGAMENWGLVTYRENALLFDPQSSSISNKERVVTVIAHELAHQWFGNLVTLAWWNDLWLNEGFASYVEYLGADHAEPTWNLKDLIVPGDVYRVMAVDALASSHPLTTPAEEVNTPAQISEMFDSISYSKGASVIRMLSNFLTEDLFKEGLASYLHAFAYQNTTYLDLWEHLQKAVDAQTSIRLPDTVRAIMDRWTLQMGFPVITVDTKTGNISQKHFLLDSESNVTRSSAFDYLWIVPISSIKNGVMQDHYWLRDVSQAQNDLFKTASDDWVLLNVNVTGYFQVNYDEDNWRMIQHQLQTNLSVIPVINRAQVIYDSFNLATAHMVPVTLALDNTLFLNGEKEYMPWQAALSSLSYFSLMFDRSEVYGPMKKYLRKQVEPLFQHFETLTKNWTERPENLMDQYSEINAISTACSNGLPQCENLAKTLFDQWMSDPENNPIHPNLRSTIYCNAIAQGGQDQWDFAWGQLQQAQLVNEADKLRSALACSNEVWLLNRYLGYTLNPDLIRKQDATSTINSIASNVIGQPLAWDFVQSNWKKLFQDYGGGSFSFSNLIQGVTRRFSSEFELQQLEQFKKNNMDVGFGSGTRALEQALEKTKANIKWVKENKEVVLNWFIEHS
Assay: Porcine kidney APN
Format: biochemical
Conditions: factor between αKi and Ki vs pAPN
α (pAPN) reference
Number, no unit, nothing else.

Some compounds with known α (pAPN) results, for comparison:
O=C(NNC(=NS(=O)(=O)c1ccc(-n2nc(C(F)(F)F)cc2-c2cccs2)cc1)N1CCCC1)c1ccc(Cl)cc1	1.82
N#Cc1cc(Cc2ccc3c(ccc4ccccc43)c2C#N)cc2c1ccc1ccccc12	2.69
C(=C1c2ccccc2-c2c1ccc1ccccc21)c1cc2c3c(cccc3c1)-c1ccccc1-2	11.40

We now examine a further compound.
input: Bench note: what α (pAPN) did CC(C)C[C@H](NC(=O)[C@@H](O)[C@H](N)Cc1ccccc1)C(=O)O [Bestatin, reference compound] show?
output: 5.97
